All values here come from patent US20150239831A1.

# measured target: UniProt:P41587
# Sequence (P41587 24-438): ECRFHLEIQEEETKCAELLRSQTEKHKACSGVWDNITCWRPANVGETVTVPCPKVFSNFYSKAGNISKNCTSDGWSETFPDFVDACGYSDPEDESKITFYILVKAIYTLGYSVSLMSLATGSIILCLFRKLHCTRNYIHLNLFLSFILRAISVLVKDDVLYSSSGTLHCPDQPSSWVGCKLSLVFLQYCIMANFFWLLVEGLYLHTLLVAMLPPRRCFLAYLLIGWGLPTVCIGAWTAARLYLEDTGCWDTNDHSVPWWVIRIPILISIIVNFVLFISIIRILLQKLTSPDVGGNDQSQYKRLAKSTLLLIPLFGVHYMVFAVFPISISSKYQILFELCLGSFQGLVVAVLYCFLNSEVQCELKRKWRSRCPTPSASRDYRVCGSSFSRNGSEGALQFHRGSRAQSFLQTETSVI
# test details: Inhibition of VIP-induced β-arrestin recruitment (% Activity Arrestin)
# Assay type: cell-based
# Set-up: expressed in transfected cells; host or cells: HEK293 cells transfected with VIPR2 in pCDNA3.1 (as described)
# run conditions: 1 μM, Batch 1
outcome measure: inhibition at 1 µM (%)

1) CC(C)(C)c1ccc(S(=O)(=O)NC[C@@H](O)C[C@@H](Cc2ccccc2)C(=O)N[C@H]2c3ccccc3C[C@H]2O)cc1 [A, reference compound] | 18.1
2) O=C(NC[C@@H](O)C[C@@H](Cc1ccccc1)C(=O)N[C@H]1c2ccccc2C[C@H]1O)c1ccc2ccccc2c1 [B] | 11.1
3) O=C(NC[C@@H](O)C[C@@H](Cc1ccccc1)C(=O)N[C@H]1c2ccccc2C[C@H]1O)C1CCCCCC1 [Compound A8] | 16.4
4) O=C(NC[C@@H](O)C[C@@H](Cc1ccccc1)C(=O)N[C@H]1c2ccccc2C[C@H]1O)c1c(Cl)cc(Cl)cc1Cl [D] | 25.3

###

# measured target: VIPR2 (Homo sapiens, UniProt P41587)
# test details: BRET-based VIPR2 activation assay (CAMYEL cAMP sensor, CHO cells, VIP background)
# Format: cell-based
# run conditions: Table 3; read-out: IC50 (from BRET)
Listed here: items and their measured IC50.
outcome measure: IC50

1) O=C(N[C@H]1c2ccccc2C[C@H]1O)[C@H](Cc1ccccc1)C[C@H](O)CNS(=O)(=O)c1ccc2c(c1)OCO2 | 3.81 µM
2) O=C(N[C@H]1c2ccccc2C[C@H]1O)[C@H](Cc1ccccc1)C[C@H](O)CNS(=O)(=O)c1ccc2c(c1)OCCO2 | 33.7 µM
3) O=C(N[C@H]1c2ccccc2C[C@H]1O)[C@H](Cc1ccccc1)C[C@H](O)CNS(=O)(=O)c1ccc(F)cc1 | 6.03 µM
4) CCc1ccc(S(=O)(=O)NC[C@@H](O)C[C@@H](Cc2ccccc2)C(=O)N[C@H]2c3ccccc3C[C@H]2O)cc1 | 45.8 µM
5) O=C(N[C@H]1c2ccccc2C[C@H]1O)[C@H](Cc1ccccc1)C[C@H](O)CNS(=O)(=O)c1ccc2c(c1)CCC2 | 10 µM
6) CC(O)c1ccc(S(=O)(=O)NC[C@@H](O)C[C@@H](Cc2ccccc2)C(=O)N[C@H]2c3ccccc3C[C@H]2O)cc1 (stereo partly shown) | 40.6 µM
7) O=C(N[C@H]1c2ccccc2C[C@H]1O)[C@H](Cc1ccccc1)C[C@H](O)CNS(=O)(=O)c1ccc(Cl)cc1 | 2.02 µM

###

# measured target: VIPR2 (Homo sapiens)
# test details: Inhibition of VIP-induced β-arrestin recruitment (% Activity Arrestin)
# Format: cell-based
# Set-up: expressed in transfected cells; host or cells: HEK293 cells transfected with VIPR2 in pCDNA3.1 (as described)
# run conditions: 1 μM, Batch 2
Each entry below lists one item and its recorded inhibition at 1 µM value.
outcome measure: inhibition at 1 µM (%)

1) CC1CCC(NC(=O)[C@@H](Cc2ccccc2)C[C@H](O)CNS(=O)(=O)c2ccc([N+](=O)[O-])cc2)CC1 (stereo partly drawn) | -0.4
2) O=C(NCc1ccc(F)cc1F)[C@@H](Cc1ccccc1)C[C@H](O)CNS(=O)(=O)c1ccc([N+](=O)[O-])cc1 [Compound B14B] | 20
3) O=C(NC1CCCc2ccccc21)[C@H](Cc1ccccc1)C[C@H](O)CNS(=O)(=O)c1ccc([N+](=O)[O-])cc1 (stereo partly drawn) [Compound B13A] | 7.4

###

# measured target: UniProt:P41587
# test details: Inhibition of VIP-induced cAMP elevation (% Activity cAMP)
# Type: cell-based
# Parameters: expressed in transfected cells; host or cells: HEK293 cells transfected with VIPR2 in pCDNA3.1 (as described)
# run conditions: 5 μM, Batch 2
Attribute: inhibition at 5 µM
outcome measure: inhibition at 5 µM (%)

1. O=C([C@H](Cc1ccccc1)C[C@H](O)CNS(=O)(=O)c1ccc([N+](=O)[O-])cc1)N1CCC(CO)CC1 | 6.2
2. CCCCNC(=O)[C@H](Cc1ccccc1)C[C@H](O)CNS(=O)(=O)c1ccc([N+](=O)[O-])cc1 | 5.3
3. CC1CCC(NC(=O)[C@H](Cc2ccccc2)C[C@H](O)CNS(=O)(=O)c2ccc([N+](=O)[O-])cc2)CC1 (stereo partly drawn) | -2.8
4. O=C(NC1CCCCCC1)[C@H](Cc1ccccc1)C[C@H](O)CNS(=O)(=O)c1ccc([N+](=O)[O-])cc1 | 12.9
5. O=C([C@@H](Cc1ccccc1)C[C@H](O)CNS(=O)(=O)c1ccc([N+](=O)[O-])cc1)N1CCCCC1 [Compound B18B] | 9.4
6. CCNC(=O)[C@H](Cc1ccccc1)C[C@H](O)CNS(=O)(=O)c1ccc([N+](=O)[O-])cc1 [Compound B16A] | -6.2
7. C[C@H](CC(C)(C)C)NC(=O)[C@H](Cc1ccccc1)C[C@H](O)CNS(=O)(=O)c1ccc([N+](=O)[O-])cc1 [Compound B10A] | -0.1
8. CCN(CC)C(=O)[C@H](Cc1ccccc1)C[C@H](O)CNS(=O)(=O)c1ccc([N+](=O)[O-])cc1 [Compound B15A] | -4.3
9. O=C(NN1CCCCC1)[C@@H](Cc1ccccc1)C[C@H](O)CNS(=O)(=O)c1ccc([N+](=O)[O-])cc1 | 6
10. O=C(NC1CCCc2ccccc21)[C@H](Cc1ccccc1)C[C@H](O)CNS(=O)(=O)c1ccc([N+](=O)[O-])cc1 (stereo partly drawn) [Compound B13A] | 17.5
11. O=C(NC1CCCC1)[C@H](Cc1ccccc1)C[C@H](O)CNS(=O)(=O)c1ccc([N+](=O)[O-])cc1 | 4.7
12. O=C(N[C@H]1c2ccccc2C[C@H]1O)[C@H](Cc1ccccc1)C[C@H](O)CNS(=O)(=O)c1ccc([N+](=O)[O-])cc1 [Compound A27, reference compound] | 100
13. O=C(NCc1ccccc1)[C@@H](Cc1ccccc1)C[C@H](O)CNS(=O)(=O)c1ccc([N+](=O)[O-])cc1 | 4.9
14. NC(=O)[C@@H](Cc1ccccc1)C[C@H](O)CNS(=O)(=O)c1ccc([N+](=O)[O-])cc1 [Compound B12B] | 9.7
15. O=C(NC1CCCC1)[C@@H](Cc1ccccc1)C[C@H](O)CNS(=O)(=O)c1ccc([N+](=O)[O-])cc1 | -0.3
16. O=C([C@H](Cc1ccccc1)C[C@H](O)CNS(=O)(=O)c1ccc([N+](=O)[O-])cc1)N1CCOCC1 | 2.4
17. CNC(=O)[C@H](Cc1ccccc1)C[C@H](O)CNS(=O)(=O)c1ccc([N+](=O)[O-])cc1 | 9.3
18. O=C([C@@H](Cc1ccccc1)C[C@H](O)CNS(=O)(=O)c1ccc([N+](=O)[O-])cc1)N1CCOCC1 | 3
19. C#CCNC(=O)[C@H](Cc1ccccc1)C[C@H](O)CNS(=O)(=O)c1ccc([N+](=O)[O-])cc1 [Compound B21A] | 7.3
20. C[C@H](CC(C)(C)C)NC(=O)[C@@H](Cc1ccccc1)C[C@H](O)CNS(=O)(=O)c1ccc([N+](=O)[O-])cc1 [Compound B10B] | 7.4
21. O=C(NN1CCCCC1)[C@H](Cc1ccccc1)C[C@H](O)CNS(=O)(=O)c1ccc([N+](=O)[O-])cc1 | 4.4
22. CCNC(=O)[C@@H](Cc1ccccc1)C[C@H](O)CNS(=O)(=O)c1ccc([N+](=O)[O-])cc1 [Compound B16B] | -22.2
23. O=C(NCc1ccc(F)cc1F)[C@@H](Cc1ccccc1)C[C@H](O)CNS(=O)(=O)c1ccc([N+](=O)[O-])cc1 [Compound B14B] | 18.2
24. C#CCNC(=O)[C@@H](Cc1ccccc1)C[C@H](O)CNS(=O)(=O)c1ccc([N+](=O)[O-])cc1 [Compound B21B] | 13.5
25. O=C([C@H](Cc1ccccc1)C[C@H](O)CNS(=O)(=O)c1ccc([N+](=O)[O-])cc1)N1CCCCC1 [Compound B18A] | 0.5
26. CCCCNC(=O)[C@@H](Cc1ccccc1)C[C@H](O)CNS(=O)(=O)c1ccc([N+](=O)[O-])cc1 | 6.2
27. O=C(NC1CCCc2ccccc21)[C@@H](Cc1ccccc1)C[C@H](O)CNS(=O)(=O)c1ccc([N+](=O)[O-])cc1 (stereo partly drawn) [Compound B13B] | 17.4
